Test system: 633275-114-R-J1-PDC complex spheroids, viability
Assay: Anticancer human tumor 633275-114-R-J1-PDC patient-derived endometrial adenocarcinoma cell line growth inhibition [GQUAD]
Conditions: curve of first compound; second compound 0.316 µM
Description: DNA G-quadruplex Stabilizer Agents in Combinations in Complex Spheroids A high-throughput screen of multi-cell type tumor spheroids was designed to identify active combinations of DNA G-quadruplex stabilizer agents and targeted small molecules. […] Compounds. […] If the clinical Cmax for an agent had not been determined, the highest concentration tested was 10 microM. […]
Can you tell me pIC50 for the items I'm about to list?
Give bare numbers, as −log10 of the molar value.

In the examples that follow, each entry is paired with its recorded pIC50.
CC[C@@]1(O)C(=O)OCc2c1cc1n(c2=O)Cc2cc3c(CN(C)C)c(O)ccc3nc2-1 + Cc1cnc(CNC(=O)c2c(=O)c3ccc(N4CCCN(C)CC4)nc3n3c2sc2ccccc23)cn1
8.78
CC[C@@]1(O)C(=O)OCc2c1cc1n(c2=O)Cc2cc3c(CN(C)C)c(O)ccc3nc2-1 + Cc1[nH]c2ccc(F)cc2c1-c1nc2c3cccnc3c3ncccc3c2[nH]1
7.13

Please look at the following compound next.
Form field - read-out: pIC50; system: 633275-114-R-J1-PDC complex spheroids, viability; submitted item: Cc1[nH]c2ccccc2c1CCNCc1ccc(/C=C/C(=O)NO)cc1 + CN(C)c1ccc(Nc2c3ccc(NC(=O)CCN4CCCC4)cc3nc3cc(NC(=O)CCN4CCCC4)ccc23)cc1
7.26

====

Tested on: 633275-114-R-J1-PDC complex spheroids, viability
Experiment: Anticancer human tumor 633275-114-R-J1-PDC cell line growth inhibition [GQUAD];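 also: spheroids exposed to the agents for seven days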;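 as to viability, T/C: percent of DMSO vehicle control viability which is 100%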
Details: second compound 0.316 µM; first compound 10 µM; stronger effect = lower value
recorded.endpoint: viability, T/C (%)
Answers are plain numbers, in %.

Take a look at these entries with their results.
O=c1[nH]cc(F)c(=O)[nH]1 + Cc1[nH]c2ccc(F)cc2c1-c1nc2c3cccnc3c3ncccc3c2[nH]1
71.4
O=c1[nH]cc(F)c(=O)[nH]1 + CN(C)c1ccc(Nc2c3ccc(NC(=O)CCN4CCCC4)cc3nc3cc(NC(=O)CCN4CCCC4)ccc23)cc1
66.2

Now look at this entry.
May I ask what viability, T/C has been recorded for C#Cc1c(F)ccc2cc(O)cc(-c3ncc4c(N5CC6CCC(C5)N6)nc(OCC56CCCN5CC(F)C6)nc4c3F)c12 (stereo not drawn) + CN(C)c1ccc(Nc2c3ccc(NC(=O)CCN4CCCC4)cc3nc3cc(NC(=O)CCN4CCCC4)ccc23)cc1 ?
68.1

====

System: 633275-114-R-J1-PDC complex spheroids, viability
Assay: Anticancer human tumor 633275-114-R-J1-PDC cell line growth inhibition [GQUAD];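 also: spheroids exposed to the agents for seven days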
Details: curve of first compound; second compound 1 µM
recorded.endpoint: IC50 (nM)
Answers are plain numbers, in nM.

// for each compound below, give its IC50
1. COc1cccc2c1C(=O)c1c(O)c3c(c(O)c1C2=O)CC(O)(C(=O)CO)CC3OC1CC(N)C(O)C(C)O1 (stereo not given) + CN(C)c1ccc(Nc2c3ccc(NC(=O)CCN4CCCC4)cc3nc3cc(NC(=O)CCN4CCCC4)ccc23)cc1
2. C=CCn1c(=O)c2cnc(Nc3ccc(N4CCN(C)CC4)cc3)nc2n1-c1cccc(C(C)(C)O)n1 + CN(C)c1ccc(Nc2c3ccc(NC(=O)CCN4CCCC4)cc3nc3cc(NC(=O)CCN4CCCC4)ccc23)cc1
3. O=C(NO)c1cnc(N2CCN(S(=O)(=O)c3ccc4ccccc4c3)CC2)nc1 + Cc1[nH]c2ccc(F)cc2c1-c1nc2c3cccnc3c3ncccc3c2[nH]1
4. CC(C)(O)C1CCC(Nc2ccc3ncc(-c4cccc(C(F)(F)F)c4)n3n2)CC1 (stereo not given) + CN(C)c1ccc(Nc2c3ccc(NC(=O)CCN4CCCC4)cc3nc3cc(NC(=O)CCN4CCCC4)ccc23)cc1

1: 65.5; 2: 641; 3: 492; 4: 1820

====

System: 633275-114-R-J1-PDC complex spheroids, viability
Experiment: Anticancer human tumor 633275-114-R-J1-PDC cell line growth inhibition [GQUAD];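 also: spheroids exposed to the agents for seven days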;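 as to viability, T/C: percent of DMSO vehicle control viability which is 100%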
Details: second compound 1 µM; first compound 0.00316 µM; stronger effect = lower value
Assign viability, T/C to each entry below.
One number for each entry, in %.

Please review the entries below; each comes with its answer.
Cc1[nH]c2ccccc2c1CCNCc1ccc(/C=C/C(=O)NO)cc1 + CN(C)c1ccc(Nc2c3ccc(NC(=O)CCN4CCCC4)cc3nc3cc(NC(=O)CCN4CCCC4)ccc23)cc1
83.4
Cn1ncnc1[C@H]1c2n[nH]c(=O)c3cc(F)cc(c23)N[C@@H]1c1ccc(F)cc1 + Cc1[nH]c2ccc(F)cc2c1-c1nc2c3cccnc3c3ncccc3c2[nH]1
85.4
CC[C@@]1(O)C(=O)OCc2c1cc1n(c2=O)Cc2cc3c(CN(C)C)c(O)ccc3nc2-1 + CN(C)c1ccc(Nc2c3ccc(NC(=O)CCN4CCCC4)cc3nc3cc(NC(=O)CCN4CCCC4)ccc23)cc1
88.6

For every record below, what is its viability, T/C?
1. Cc1[nH]c2ccccc2c1CCNCc1ccc(/C=C/C(=O)NO)cc1 + Cc1[nH]c2ccc(F)cc2c1-c1nc2c3cccnc3c3ncccc3c2[nH]1
2. CCc1c2c(nc3ccc(O)cc13)-c1cc3c(c(=O)n1C2)COC(=O)[C@]3(O)CC + Cc1[nH]c2ccc(F)cc2c1-c1nc2c3cccnc3c3ncccc3c2[nH]1
3. CC[C@@]1(O)C(=O)OCc2c1cc1n(c2=O)Cc2cc3c(CN(C)C)c(O)ccc3nc2-1 + Cc1cnc(CNC(=O)c2c(=O)c3ccc(N4CCCN(C)CC4)nc3n3c2sc2ccccc23)cn1
4. CCc1c2c(nc3ccc(O)cc13)-c1cc3c(c(=O)n1C2)COC(=O)[C@]3(O)CC + CN(C)c1ccc(Nc2c3ccc(NC(=O)CCN4CCCC4)cc3nc3cc(NC(=O)CCN4CCCC4)ccc23)cc1

[78.7, 43.5, 40.6, 43.1]

====

For each entry below, report its pIC50 value.
System: 633275-114-R-J1-PDC complex spheroids, viability
Assay: Anticancer human tumor 633275-114-R-J1-PDC cell line growth inhibition [GQUAD];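 also: spheroids exposed to the agents for seven days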
Details: curve of first compound; second compound 0.316 µM
pIC50: −log10 of the molar value.

Solved entries (count: 6):
CC(=O)O[C@H]1C(=O)[C@@]2(C)[C@H]([C@H](OC(=O)c3ccccc3)[C@]3(O)C[C@H](OC(=O)[C@H](O)[C@@H](NC(=O)c4ccccc4)c4ccccc4)C(C)=C1C3(C)C)[C@]1(OC(C)=O)CO[C@@H]1C[C@@H]2O + CN(C)c1ccc(Nc2c3ccc(NC(=O)CCN4CCCC4)cc3nc3cc(NC(=O)CCN4CCCC4)ccc23)cc1
> 7.50
O=C(NO)c1cnc(N2CCN(S(=O)(=O)c3ccc4ccccc4c3)CC2)nc1 + CN(C)c1ccc(Nc2c3ccc(NC(=O)CCN4CCCC4)cc3nc3cc(NC(=O)CCN4CCCC4)ccc23)cc1
6.77
C=CC(=O)N1CCN(c2nc(=O)n(-c3c(C)ccnc3C(C)C)c3nc(-c4c(O)cccc4F)c(F)cc23)C(C)C1 (stereo not drawn) + Cc1[nH]c2ccc(F)cc2c1-c1nc2c3cccnc3c3ncccc3c2[nH]1
< 5.00
COc1cccc2c1C(=O)c1c(O)c3c(c(O)c1C2=O)CC(O)(C(=O)CO)CC3OC1CC(N)C(O)C(C)O1 (stereo not drawn) + Cc1cnc(CNC(=O)c2c(=O)c3ccc(N4CCCN(C)CC4)nc3n3c2sc2ccccc23)cn1
> 7.50
CC1COCCN1c1cc(-c2ccnn2C)c2ccnc(-c3ccn[nH]3)c2n1 (stereo not drawn) + Cc1cnc(CNC(=O)c2c(=O)c3ccc(N4CCCN(C)CC4)nc3n3c2sc2ccccc23)cn1
> 7.50
CC(C)(O)C1CCC(Nc2ccc3ncc(-c4cccc(C(F)(F)F)c4)n3n2)CC1 (stereo not drawn) + Cc1[nH]c2ccc(F)cc2c1-c1nc2c3cccnc3c3ncccc3c2[nH]1
5.75

Can you give me pIC50 for all of these, one by one?
1. CCc1c2c(nc3ccc(O)cc13)-c1cc3c(c(=O)n1C2)COC(=O)[C@]3(O)CC + Cc1cnc(CNC(=O)c2c(=O)c3ccc(N4CCCN(C)CC4)nc3n3c2sc2ccccc23)cn1
2. CCc1c2c(nc3ccc(O)cc13)-c1cc3c(c(=O)n1C2)COC(=O)[C@]3(O)CC + Cc1[nH]c2ccc(F)cc2c1-c1nc2c3cccnc3c3ncccc3c2[nH]1

1: > 9.00; 2: 8.57

====

Tested on: 633275-114-R-J1-PDC complex spheroids, viability
Assay: Anticancer human tumor 633275-114-R-J1-PDC cell line growth inhibition [GQUAD];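 also: spheroids exposed to the agents for seven days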;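 as to viability, T/C: percent of DMSO vehicle control viability which is 100%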
Settings: second compound 1 µM; first compound 0.00316 µM; stronger effect = lower value
Rule: measured viability, T/C below 90% gets Y; anything equal to or greater than 90% gets N.

Take a look at these entries with their results.
CCc1c2c(nc3ccc(O)cc13)-c1cc3c(c(=O)n1C2)COC(=O)[C@]3(O)CC + Cc1cnc(CNC(=O)c2c(=O)c3ccc(N4CCCN(C)CC4)nc3n3c2sc2ccccc23)cn1
Y
Cc1[nH]c2ccccc2c1CCNCc1ccc(/C=C/C(=O)NO)cc1 + Cc1cnc(CNC(=O)c2c(=O)c3ccc(N4CCCN(C)CC4)nc3n3c2sc2ccccc23)cn1
Y
Cn1ncnc1[C@H]1c2n[nH]c(=O)c3cc(F)cc(c23)N[C@@H]1c1ccc(F)cc1 + Cc1cnc(CNC(=O)c2c(=O)c3ccc(N4CCCN(C)CC4)nc3n3c2sc2ccccc23)cn1
Y

Consider now this further molecule.
# strict comparison: is reported viability, T/C < 90%? input = Cn1ncnc1[C@H]1c2n[nH]c(=O)c3cc(F)cc(c23)N[C@@H]1c1ccc(F)cc1 + CN(C)c1ccc(Nc2c3ccc(NC(=O)CCN4CCCC4)cc3nc3cc(NC(=O)CCN4CCCC4)ccc23)cc1
N
